tested on: vaccinia virus; details: 10 μM
value.type: % Viability (%)
Report the value in % with no unit label.

Just so you know, measured % Viability for CC(CCCNCCCNCCCN)C1CCC2C3C(OCCCN)CC4CC(OCCCN)CCC4(C)C3CC(OCCCN)C12C (centres unmarked) [CSA-54] came out at 101.12

Quick note, % Viability for CC(CCCO)C1CCC2C3C(OCCCN)CC4CC(OCCCN)CCC4(C)C3CC(OCCCN)C12C (centres unmarked) [CSA-8] landed at 28.79

Form: molecule = CC(CCCO)C1CCC2C3C(NC(=O)CCCCCN)CC4CC(NC(=O)CCCCCN)CCC4(C)C3CC(NC(=O)CCCCCN)C12C (centres unmarked) [CSA-31] ; % Viability = 99.24

The molecule listed as CCCCCCCCN(CCCCCCCC)CCCC(C)C1CCC2C3C(OCCCN)CC4CC(OCCCN)CCC4(C)C3CC(OCCCN)C12C.Cl.Cl.Cl.Cl (centres unmarked) [CSA-91] shows % Viability equal to 0.00

% Viability measured on CC(CCCNC(=O)CCC(=O)c1ccc2cc(N(C)C)ccc2c1)C1CCC2C3C(OCCCN)CC4CC(OCCCN)CCC4(C)C3CC(OCCCN)C12C (centres unmarked) [CSA-59] = 66.31

% Viability for CC(CCCN)C1CCC2C3C(OCCCN)CC4CC(OCCCN)CCC4(C)C3CC(OCCCN)C12C (centres unmarked) [CSA-15] is 93.68

The reported value for CC(CCCOCCCN)C1CCC2C3C(OCCCN)CC4CC(OCCCN)CCC4(C)C3CC(OCCCN)C12C (centres unmarked) [CSA-25] in terms of % Viability is 74.35

Lookup result for CC(CCCOS(=O)(=O)O)C1CCC2C3C(OCCCN)CC4CC(OCCCN)CCC4(C)C3CC(OCCCN)C12C (centres unmarked) [CSA-21] ; measured % Viability: 71.76

====

I'd appreciate it if you could supply % Viability values for the items below.
system: vaccinia virus; conditions: 50 μM
Just the number please, in %, no unit attached.

CC(CCCNCCCNCCCN)C1CCC2C3C(OCCCN)CC4CC(OCCCN)CCC4(C)C3CC(OCCCN)C12C (centres unmarked) yielded % Viability of 101.12

The recorded % Viability for entry CCCCCCCCOCCCC(C)C1CCC2C3C(OCCCN)CC4CC(OCCCN)CCC4(C)C3CC(OCCCN)C12C (centres unmarked) equals 0.00

Briefly, % Viability measured for "CCCCCCCCNCCC[C@@H](C)[C@H]1CC[C@H]2[C@@H]3[C@H](OCCCN)C[C@@H]4C[C@H](OCCCN)CC[C@]4(C)[C@H]3C[C@H](OCCCN)[C@]12C" : 0.00

The measured % Viability associated with CCCOCCCC(C)C1CCC2C3C(OCCCN)CC4CC(OCCCN)CCC4(C)C3CC(OCCCN)C12C (centres unmarked) reads 0.00

The value of % Viability measured for the compound CC(CCCOS(=O)(=O)O)C1CCC2C3C(OCCCN)CC4CC(OCCCN)CCC4(C)C3CC(OCCCN)C12C (centres unmarked) turned out to be 14.12

# compound CC(CCCO)C1CCC2C3C(NC(=O)CCCCCN)CC4CC(NC(=O)CCCCCN)CCC4(C)C3CC(NC(=O)CCCCCN)C12C (centres unmarked) ; its % Viability = 102.28

The recorded % Viability for entry CC(CCCN)C1CCC2C3C(OCCCN)CC4CC(OCCCN)CCC4(C)C3CC(OCCCN)C12C (centres unmarked) equals 97.40

CCCCCN(CCCCC)CCCC(C)C1CCC2C3C(OCCCN)CC4CC(OCCCN)CCC4(C)C3CC(OCCCN)C12C.Cl.Cl.Cl.Cl (centres unmarked) yielded % Viability of 4.83

% Viability recorded for this compound, CCCCCCCCCCCCCCCCNCCCC(C)C1CCC2C3C(OCCCN)CC4CC(OCCCN)CCC4(C)C3CC(OCCCN)C12C.Cl.Cl.Cl.Cl (centres unmarked) , is 0.00

Measured % Viability of CCCCCCCCN(CCCCCCCC)CCCC(C)C1CCC2C3C(OCCCN)CC4CC(OCCCN)CCC4(C)C3CC(OCCCN)C12C.Cl.Cl.Cl.Cl (centres unmarked) : 0.00

Form: compound = "CCCCCCCCNCCC[C@@H](C)[C@H]1CC[C@H]2[C@@H]3CC[C@@H]4C[C@H](OCCCN)CC[C@]4(C)[C@H]3C[C@H](OCCCN)[C@]12C" ; % Viability = 0.00

Sample CC(CCCOCCCN)C1CCC2C3C(OCCCN)CC4CC(OCCCN)CCC4(C)C3CC(OCCCN)C12C (centres unmarked) ; % Viability observed: 39.41

compound CC(CCCNC(=O)CCC(=O)c1ccc2cc(N(C)C)ccc2c1)C1CCC2C3C(OCCCN)CC4CC(OCCCN)CCC4(C)C3CC(OCCCN)C12C (centres unmarked) , % Viability observed: 0.54

Form: compound = CC(CCCO)C1CCC2C3C(OCCCN)CC4CC(OCCCN)CCC4(C)C3CC(OCCCN)C12C (centres unmarked) ; % Viability = 2.33
